Tested on: BxPC-3
Test: MTT cell viability assay, BxPC-3
Format: cell-based
Details: BxPC-3 pancreatic cancer, MTT, 72 h
pIC50: −log10 of the molar value.
REPORTED ENDPOINT: pIC50

a = O=C(Nc1ccc(Cl)c(Cl)c1)C(Sc1nc2cc(Cl)ccc2s1)c1ccccc1 (centres unmarked)
b = O=C(Nc1ccc(C(F)(F)F)cc1)C(Sc1nc2cc(Cl)ccc2s1)c1ccccc1 (centres unmarked)
Of a and b , which shows the smaller pIC50 value? Give the label of your selection.
a

###

Reported melting point values for a set of molecules

Study these solved cases before continuing.
melting point recorded for this molecule, CC(=O)Nc1ccc(NC(=O)C(Sc2nc3cc(Cl)ccc3s2)c2ccccc2)cc1 (stereo not drawn) [4f] , is 243 °C (dec.)

melting point recorded for this molecule, O=C(Nc1ccc(Cl)cc1)C(Sc1nc2cc(Cl)ccc2s1)c1ccccc1 (stereo not drawn) [4b] , is 178 to 180 °C

melting point recorded for this molecule, COc1ccc(NC(=O)C(Sc2nc3cc(Cl)ccc3s2)c2ccccc2)cc1 (stereo not drawn) [4a] , is 190 °C (dec.)

melting point recorded for this molecule, O=C(Nc1cccc([N+](=O)[O-])c1)C(Sc1nc2cc(Cl)ccc2s1)c1ccccc1 (stereo not drawn) [4k] , is 193 to 195 °C

melting point recorded for this molecule, O=C(Nc1ccc([N+](=O)[O-])cc1)C(Sc1nc2cc(Cl)ccc2s1)c1ccccc1 (stereo not drawn) [4e] , is 191 to 193 °C

melting point recorded for this molecule, O=C(Nc1cccc(F)c1)C(Sc1nc2cc(Cl)ccc2s1)c1ccccc1 (stereo not drawn) [4i] , is 151 to 153 °C

melting point recorded for this molecule, COc1cccc(NC(=O)C(Sc2nc3cc(Cl)ccc3s2)c2ccccc2)c1 (stereo not drawn) [4g] , is 160 to 162 °C

melting point recorded for this molecule, O=C(Nc1cc(C(F)(F)F)ccc1Br)C(Sc1nc2cc(Cl)ccc2s1)c1ccccc1 (stereo not drawn) [4p] , is 157 to 159 °C

We next turn to a different molecule, shown below.
melting point recorded for this molecule, O=C(Nc1ccc(C(F)(F)F)cc1Br)C(Sc1nc2cc(Cl)ccc2s1)c1ccccc1 (stereo not drawn) [4o] , is 179 to 180 °C

The reported numbers originate from paper PMC9412555.
